Entry source: patent US7741341B2

Give pKi for every item shown.
Scale for pKi: -log10 of concentration given in mol/L; no unit attached.

*Q* Item: CC(C)N1CCC(NC(=O)c2nc3c(C(=O)OCC(=O)O)cccc3n2Cc2cc(-c3ccc(Cl)s3)on2)CC1 [Example 66] Test system: human factor Xa (Homo sapiens, UniProt P00742) Read-out: pKi Value: ?
*A* 8.52

*Q* Item: COC(=O)c1ccc2c(c1)nc(C(=O)NC1CCN(C(C)C)CC1)n2CC(=O)Nc1ccc(Cl)cn1 [Example 17a] Test system: human factor Xa (Homo sapiens, UniProt P00742) Read-out: pKi Value: ?
*A* 7.71

*Q* Item: CC(C)N1CCC(NC(=O)c2nc3cc(C(=O)N4CCCOCC4)ccc3n2CC(=O)Nc2ccc(Cl)cn2)CC1 [Example 77] Test system: human factor Xa (Homo sapiens, UniProt P00742) Read-out: pKi Value: ?
*A* 7.28

*Q* Item: O=C(Cn1c(C(=O)Nc2ccc(N3CCOCC3=O)cc2)nc2ccccc21)Nc1ccc(Cl)cn1 [Example 35] Test system: human factor Xa (Homo sapiens, UniProt P00742) Read-out: pKi Value: ?
*A* 7.39

----------
Give Ki for every item shown.
Give a bare numeral; the unit nM is implied.

*Q* Item: CC(OC(=O)OC1CCCCC1)OC(=O)c1ccc2nc(C(=O)NC3CCN(C(C)C)CC3)n(CC(=O)Nc3ccc(Cl)cn3)c2c1 (stereo not shown) [Example 61] Test system: human factor Xa (Homo sapiens) Read-out: Ki Value: ?
*A* 867

*Q* Item: COCCOc1cccc2c1nc(C(=O)NC1CCN(C(C)C)CC1)n2CC(=O)Nc1ccc(Cl)cn1 [Example 108] Test system: human factor Xa (Homo sapiens) Read-out: Ki Value: ?
*A* 6.5

*Q* Item: CC(C)N1CCC(NC(=O)c2nc3c(C(=O)O)cccc3n2CC(=O)Nc2ccc(Cl)cn2)CC1 [Example 16] Test system: human factor Xa (Homo sapiens) Read-out: Ki Value: ?
*A* 11

*Q* Item: CN1C2CCC1CC(NC(=O)c1nc3ccccc3n1Cc1cc(-c3ccc(Cl)s3)on1)C2 (stereo not shown) [Example 40] Test system: human factor Xa (Homo sapiens) Read-out: Ki Value: ?
*A* 20

----------
Entries below carry reported Ki on human factor Xa (Homo sapiens, UniProt P00742).
Sequence (P00742 235-488 limits assumed): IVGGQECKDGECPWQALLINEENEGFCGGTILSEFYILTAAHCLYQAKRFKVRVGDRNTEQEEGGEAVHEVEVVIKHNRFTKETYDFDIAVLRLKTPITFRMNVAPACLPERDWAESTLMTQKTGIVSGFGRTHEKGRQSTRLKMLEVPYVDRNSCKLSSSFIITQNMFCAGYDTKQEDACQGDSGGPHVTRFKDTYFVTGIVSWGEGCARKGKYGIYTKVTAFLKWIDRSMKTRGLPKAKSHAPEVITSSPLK
Sequence (P00742 41-179 partner limits assumed): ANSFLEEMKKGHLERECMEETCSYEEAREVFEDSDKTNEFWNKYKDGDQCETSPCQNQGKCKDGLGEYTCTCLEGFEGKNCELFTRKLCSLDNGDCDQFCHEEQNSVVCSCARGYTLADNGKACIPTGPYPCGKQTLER
Give a bare numeral; the unit nM is implied.

*Q* Item: COC(=O)c1cccc2c1nc(C(=O)NC1CCN(C(C)C)CC1)n2CC(=O)Nc1ccc(Cl)cn1 [Example 15] Test system: human factor Xa (Homo sapiens, UniProt P00742) Read-out: Ki Value: ?
*A* 11.5

*Q* Item: CC(C)N1CCC(NC(=O)c2nc3ccc(C(=O)O)cc3n2CC(=O)Nc2ccc(Cl)cn2)CC1 [Example 19] Test system: human factor Xa (Homo sapiens, UniProt P00742) Read-out: Ki Value: ?
*A* 23.5

*Q* Item: CC(C)N1CCC(NC(=O)c2nc3c(C(=O)OCCO)cccc3n2Cc2cc(-c3ccc(Cl)s3)on2)CC1 [Example 64] Test system: human factor Xa (Homo sapiens, UniProt P00742) Read-out: Ki Value: ?
*A* 2

*Q* Item: COC(=O)c1cccc2c1nc(C(=O)Nc1ccc(N3CCOCC3=O)cc1)n2CC(=O)Nc1ccc(Cl)cn1 [Example 36] Test system: human factor Xa (Homo sapiens, UniProt P00742) Read-out: Ki Value: ?
*A* 31.5

*Q* Item: CC(C)N1CCC(NC(=O)c2nc3c(c(=O)n(C)c(=O)n3C)n2Cc2cc(-c3ccc(Cl)s3)on2)CC1 [Example 92] Test system: human factor Xa (Homo sapiens, UniProt P00742) Read-out: Ki Value: ?
*A* 22.5

*Q* Item: O=C(Cn1c(C(=O)Nc2ccc(N3CCOC3=O)cc2)nc2ccccc21)Nc1ccc(Cl)cn1 [Example 43] Test system: human factor Xa (Homo sapiens, UniProt P00742) Read-out: Ki Value: ?
*A* 840

*Q* Item: CC(C)N1CCC(NC(=O)c2nc3ccc(S(=O)(=O)CCO)cc3n2Cc2cc(-c3ccc(Cl)s3)on2)CC1 [Example 29b] Test system: human factor Xa (Homo sapiens, UniProt P00742) Read-out: Ki Value: ?
*A* 11.5
